Would you kindly list ΔTm at 4 µM for each of these compounds?
Biological target: BRD4 (Homo sapiens, UniProt O60885)
Assay: Differential Scanning Fluorimetry (DSF), stability of BRD4 upon ligand binding
Conditions: 100 μM protein, 4 μM compound and 2% DMSO
Procedure: DSF=Differential Scanning Fluorimetry; provides a measure of the increased stability of BRD4 upon ligand binding The DSF experiment was run at 100 μM protein, 4 μM compound and 2% DMSO.
Output spec: scalar in °C, unitless text.

Quick check: ΔTm at 4 µM of Cc1cnc(Nc2ccc(N3CCN(C)CC3)cc2)nc1Nc1ccc(Cl)c(NS(=O)(=O)C(C)(C)C)c1 [drawing 109] ?
9.57

Now the same for COc1cc(Nc2nc(Nc3ccc(N4CCNCC4)cc3)ncc2C)ccc1Cl
7.1

Now the same for COc1cc(Nc2nc(Nc3ccc(N4CCN(C)CC4)cc3)ncc2Cl)cc(OC)c1Cl
2

Now the same for CCOC(=O)c1cnc(Nc2ccc(N3CCN(C)CC3)cc2)nc1Nc1cccc(S(=O)(=O)NC(C)(C)C)c1
-0.0056

Now the same for CC(C)(C)NS(=O)(=O)c1cccc(Nc2nc(Nc3ccc(N4CCOCC4)cc3)ncc2Cl)c1
-0.071

Now the same for Cc1cnc(Nc2ccc(N3CCN(C)CC3)cc2)nc1Nc1cccc(C(C)(C)C)c1
2.9

Now the same for CN1CCN(c2ccc(Nc3ncc(Cl)c(Nc4cccc(C(C)(C)C)c4)n3)cc2)CC1
0.12

Now the same for CC(C)NS(=O)(=O)c1cccc(Nc2nc(Nc3ccc(N4CCN(C)CC4)cc3)nc3ccccc23)c1
5

Now the same for CC(C)NS(=O)(=O)c1cccc(Nc2nc(Nc3ccc(N4CCOCC4)cc3)ncc2Br)c1
-0.79

Now the same for CN1CCN(c2ccc(Nc3ncc(Cl)c(Nc4cccc(S(=O)(=O)NC5CC5)c4)n3)cc2)CC1
6.4

Now the same for Cc1cnc(Nc2ccc(N3CCN(C)CC3)cc2)nc1Nc1cccc(NS(=O)(=O)C2CC2)c1
6.7

Now the same for Cc1cnc(Nc2ccc(N3CCN(C)CC3)c(F)c2)nc1Nc1cccc(NS(=O)(=O)C(C)(C)C)c1
9.5

Now the same for Cc1nc(Nc2ccc(N3CCOCC3)cc2)nc(Nc2cccc(S(=O)(=O)NC(C)(C)C)c2)c1C
1.9

Now the same for CN1CCN(c2ccc(Nc3nc4c(c(Nc5cccc(S(=O)(=O)NC(C)(C)C)c5)n3)CCC4)cc2)CC1
4.9

Now the same for Cc1ccc(Nc2nc(Nc3ccc(N4CCN(C)CC4)cc3)ncc2C)cc1S(=O)(=O)NC1CCC1
6.7

Now the same for Cc1cnc(Nc2ccc(N3CCN(C)CC3)c(C(F)(F)F)c2)nc1Nc1ccc(Cl)c(NS(=O)(=O)C(C)(C)C)c1
2.46

Now the same for Cc1cnc(Nc2ccc(N3CCN(C)CC3)cc2)nc1Nc1cccc(NS(=O)(=O)C2(C)CC2)c1
7.5

Now the same for CC(C)(C)NS(=O)(=O)c1cccc(Nc2nc(Nc3ccc(N4CCNCC4)cc3)ncc2C(F)(F)F)c1
2.9

Values compiled from patent US10526291B2.
